These data points were gathered from PubChem BioAssay.

experiment: inhibitors of TNFa-induced NFkB p65 translocation, primary screen, imaging, HUVEC, MLSMR starter and 10KST1 sets (AID 438); settings: HUVEC TNFa-induced p65 nuclear translocation; at 2 µM, hits give high values, 0% TNFa-plus-vehicle, 100% no-TNFa wells;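 also: compound added about 3h40 before a 20 min TNFalpha stimulation; signal is the nuclear over cytoplasmic p65 intensity ratio per well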
Calls of active or inactive are those of the source.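 The calls were made as follows: active = inhibition above 20% together with a positive visual image hit; inconclusive = visual image hit but inhibition not above 20%; inactive = no visual image hit.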
Reported property: inhibition

Compound	Reported property	Reported result
CCOc1ccc(-c2noc(-c3ccncc3)n2)cc1OCC	inhibition	1.7% (inactive)
CC(=O)Nc1cccc(NC(=O)CSc2nnnn2C)c1	inhibition	-2.1% (inactive)
COc1ccc(C(NC(C)=O)c2ccc3cccnc3c2O)c(OC)c1 (stereo not drawn)	inhibition	2.1% (inactive)
Cc1ccc(S(=O)(=O)N2CCCN(S(=O)(=O)C3CCS(=O)(=O)C3)CC2)cc1 (stereo not drawn)	inhibition	2.4% (inactive)
CC(=O)C1=C(O)C(=O)N(Cc2ccco2)C1c1ccc(F)cc1 (stereo not drawn)	inhibition	4.3% (inactive)
CC(C)(C)n1ncc2c(=O)n(CC(=O)NCc3ccccc3)cnc21	inhibition	2.4% (inactive)
CN1C(=S)SC(C)(NO)C1(C)C (stereo not drawn)	inhibition	6.5% (inactive)
Cc1ccc(S(=O)(=O)N2CCCC(C(=O)NC3=NCCS3)C2)cc1 (stereo not drawn)	inhibition	7.4% (inactive)
COc1ccc(-c2cc(N3CCCC3)n3ncnc3n2)cc1	inhibition	11.9% (inactive)
Cc1nc(SCC(=O)Nc2ccccc2C(F)(F)F)c2c(=O)n(C)c(=O)n(C)c2n1	inhibition	-4.7% (inactive)
CCC1CCCCN1S(=O)(=O)c1ccc(C(=O)Nc2nnc(-c3ccccc3Cl)o2)cc1 (stereo not drawn)	inhibition	5.2% (inactive)
Cc1cccc(-n2ncc3c(NCc4cccs4)ncnc32)c1	inhibition	6.7% (inactive)
Cc1cc(=O)oc2cc(Oc3ncccn3)ccc12	inhibition	2.4% (inactive)
CCCCCn1c(CN(C)Cc2ccccc2)nc2c1c(=O)n(C)c(=O)n2C	inhibition	-12.2% (inactive)
N#Cc1cnn(Cc2ccc(Cl)cc2)c1N	inhibition	4.5% (inactive)
Cc1ccc2c(c1)-c1c(cnn1CC(=O)NC(C)CCc1ccco1)CO2 (stereo not drawn)	inhibition	4.6% (inactive)
C=CCSc1nnc(-c2cccnc2)o1	inhibition	8.2% (inactive)
Cc1nc2c(=O)oc3ccccc3c2n1-c1ccccc1	inhibition	2.9% (inactive)
Cc1cc(NC(=O)c2cc(-c3ccco3)on2)n(-c2ccccc2)n1	inhibition	6.8% (inactive)
COc1ccccc1N1CCN(C(=O)C2CCN(S(=O)(=O)c3ccc(F)cc3)CC2)CC1	inhibition	11.9% (inactive)
Cc1cnc(C(=O)Nc2ccc(N3CCN(C(=O)OC(C)(C)C)CC3)cc2)cn1	inhibition	8.7% (inactive)
O=C(Nc1ccc2c(c1)OCCO2)C1CCN(C(=O)c2ccc(F)cc2)CC1	inhibition	4.1% (inactive)
OC(CN1CCOCC1)Cn1c(-c2cccc(Cl)c2)nc2ccccc21 (stereo not drawn)	inhibition	-2.9% (inactive)

###

target: Voltage-gated potassium channel subunit beta-2 (Rattus norvegicus); experiment: inhibitors of rat Kvbeta2 reductase activity – biochemical, NADPH fluorescence, primary screen (AID 622); conditions: recombinant KvBeta, 4-cyanobenzaldehyde reduction, at 10 µM, hits give high values;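 also: slope of raw intensity against log time taken from 70 to 1610 s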

Compound	fluorescence slope
O=C(Nc1nnc(C2CCCCC2)s1)c1cccs1	-0.437
COc1ccccc1Nc1nc(N)nc(CSc2nccc(C)n2)n1	-0.546
COc1ccc(OC)c(N(CC(=O)Nc2cccnc2)S(=O)(=O)c2ccc(OC)c(OC)c2)c1	-0.456
COc1ccccc1NC(=O)NC(N)=O	-0.386
CN1CCN(c2ncnc3c2cnn3-c2ccc(Cl)cc2)CC1	-0.591
O=C(Nc1cccnc1N1CCOCC1)c1ccco1	-0.221
O=C1OC(N2CCN(c3ccccn3)CC2)c2ccccc21 (stereo not drawn)	-0.633
O=C(CN(c1ccc(F)cc1)S(=O)(=O)c1ccc2c(c1)OCCO2)NCC1CCCO1 (stereo not drawn)	-0.453
COc1ccc(OC)c(C2CC(=O)NC(SC)=C2C#N)c1 (stereo not drawn)	-0.529
CCCCn1c(SCC(=O)Nc2ccc(OC)cc2)nc2ccc(N3CCOCC3)cc2c1=O	-0.407
CCOc1ccc2[nH]c(O)c(NC(C)=O)c2c1	-0.361
CC1=C(C)C(=O)NC(Nc2nc(C)c3cc(C)cc(C)c3n2)N1 (stereo not drawn)	-0.285
Cc1ccc(S(=O)(=O)N2CCN(C(=O)c3cc(=O)[nH]c4ccccc34)CC2)c(C)c1	-0.5
Cc1ccc(S(=O)(=O)N2CCOCC2)cc1C(=O)Nc1ccccn1	-0.346
CS(=O)(=O)Nc1ccccc1C(=O)O	-0.411
CCC(=O)c1ccc(OCCN2CCOCC2)cc1	-0.566
Cc1ccc(S(=O)(=O)N2CCN(C(=O)N3CCOCC3)C2c2ccc(N(C)C)cc2)cc1 (stereo not drawn)	-0.419
CCn1c(SCC(=O)Nc2ccccc2N2CCCCC2)nc2c1c(=O)n(C)c(=O)n2C	-0.338
Cc1sc2c(c1C)CN(C1CC(C)(C)NC(C)(C)C1)CN2C(=O)c1ccco1	-0.377
Cc1cc(C)n2nc(SCC(=O)N(C)c3ccccc3)nc2n1	-0.462
CC(C)COc1ccc(C(=O)OCCN2CCOCC2)cc1	-0.636
Cc1ccc(S(=O)(=O)N(CC(=O)N2CCC(C(N)=O)CC2)Cc2ccc(F)cc2)cc1	-0.361
Cc1cccc(C)c1OCc1nnc2c3cnn(C)c3ncn12	-0.533
